protocol: Cytotoxicity against human prostate cancer cells assessed as growth inhibition at 10 uM by SRB assay
Assay type: functional
studyConditions: Cancer cell lines, read-out: GI
measureName: inhibition of growth at 10 µM (%)

{"columns": ["compound", "quantityUnit", "observedResult"],
 "data": [
  ["C[C@@H]1CC[C@H]2[C@@H](C)C(OCCC#Cc3ccc(-c4ccc(C#CCCOC5O[C@@H]6O[C@@]7(C)CC[C@H]8[C@H](C)CC[C@@H]([C@H]5C)[C@@]68OO7)cc4)cc3)O[C@@H]3O[C@@]4(C)CC[C@@H]1[C@]32OO4 (stereo partly drawn)", "%", 41],
  ["C[C@@H]1CC[C@H]2[C@@H](C)C(OCCC#Cc3ccc(C#CCCOC4O[C@@H]5O[C@@]6(C)CC[C@H]7[C@H](C)CC[C@@H]([C@H]4C)[C@@]57OO6)s3)O[C@@H]3O[C@@]4(C)CC[C@@H]1[C@]32OO4 (stereo partly drawn)", "%", 49],
  ["C[C@@H]1CC[C@H]2[C@@H](C)C(OCC#Cc3cccc(C#CCOC4O[C@@H]5O[C@@]6(C)CC[C@H]7[C@H](C)CC[C@@H]([C@H]4C)[C@@]57OO6)c3)O[C@@H]3O[C@@]4(C)CC[C@@H]1[C@]32OO4 (stereo partly drawn)", "%", 50]
]}
